These data points were gathered from PubChem BioAssay AID1159580.

# test_protocol: chemical genetic growth profiling, strain panel (AID 1159580);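 also: tested at 20 µM; growth read once vehicle control cultures reached saturation at 30 °C; 1 = growth at the plate median or of vehicle wells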
# condition: S. cerevisiae deletion strains, growth OD, locus YKL085W, strain MDH1 (second series), stronger effect = lower value
Hit rate of the full screen: of about 5,500 compounds, about 2,000 (36%) were called active. Roughly 18% stayed inconclusive and do not appear here. The list shows a part of the results.
reported_property: normalized growth
Give a plain numeric answer without units written out.

Below, 7 compounds whose answers are already recorded.
>>> result_value("COc1cc2c(cc1OC)C(=O)c1ccc(OC)c(OC)c1OCC(=O)C2")
0.962
>>> result_value("CN1CC(=O)N=C1N")
0.998
>>> result_value("COc1ccc(C(CN(C)C)C2(O)CCCCC2)cc1 (stereo not drawn)")
0.994
>>> result_value("O=c1cccc2ccc(O)c(O)c2c1O")
1.04
>>> result_value("COc1ccc2c(c1)OC/C(=C/c1ccc(OC)c(OC)c1)C2=O")
0.98
>>> result_value("COC(=O)c1cc(=O)c(O)c2c(O)c(O)ccc2c1")
0.793
>>> result_value("Clc1ccc(C(c2ccc(Cl)cc2)C(Cl)(Cl)Cl)cc1")
1.01

Now take the following compound into account.
Given `CNC(=O)O/N=C(\C)SC` , state its recorded normalized growth.
0.985

---

# normalized growth listing for each entry below
# test_protocol: chemical genetic growth profiling, strain panel (AID 1159580);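 also: tested at 20 µM; growth read once vehicle control cultures reached saturation at 30 °C; 1 = growth at the plate median or of vehicle wells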
# condition: S. cerevisiae deletion strains, growth OD, locus YDR392W, strain spt3, stronger effect = lower value
Out of some 5,500 compounds screened, about 2,000 (36%) were called active. Not shown: some 18% with an inconclusive outcome. The list shows a part of the results.
Reply with the value as a number alone.

>>> result_value("C=CCc1ccc(OC)cc1")
0.919

Return reported normalized growth; argument: `COc1ccc2c(c1)OC/C(=C/c1ccc(OC)c(OC)c1)C2=O`
0.212

// normalized growth lookup, key: `COc1ccc2c(c1)OC/C(=C\c1ccc(OC)c(O)c1)C2=O`
0.206

Could you share which normalized growth value was measured for `NCCS(=O)(=O)O` ?
0.977

---

Recorded normalized growth values for a group of compounds are listed next.
# test_protocol: chemical genetic growth profiling, strain panel (AID 1159580);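 also: tested at 20 µM; growth read once vehicle control cultures reached saturation at 30 °C; 1 = growth at the plate median or of vehicle wells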
# condition: S. cerevisiae deletion strains, growth OD, locus YML120C, strain ndi1, stronger effect = lower value
In all, about 5,500 compounds went through this assay and about 2,000 (36%) were called active. Inconclusive results (about 18%) are left out. This is one part of the list.

Example entries and their recorded answers appear below.
>>> result_value("C[n+]1c2cc(N)ccc2cc2ccc(N)cc21")
"0.409 (active)"
>>> result_value("COC(=O)[C@@H]1OC(=O)C2OC23[C@@]1(C)CCC1[C@]2(C)C(C[C@H](O)[C@]13C)C(C)(C)[C@H](OC(C)=O)C[C@@H]2OC(C)=O (stereo not given in full)")
"1.01 (inactive)"
>>> result_value("O=C(O)/C=C/c1ccc(O)c(O)c1")
"1.01 (inactive)"
>>> result_value("O=C(/C=C/c1ccc(O)c(O)c1)OC(Cc1ccc(O)c(O)c1)C(=O)O (stereo not given)")
"0.994 (inactive)"

Sample COc1ccc2c(c1)OC1(O)COc3cc(OC)c(OC)cc3C1=C2 (stereo not given) — what was its normalized growth?
0.989 (inactive)

---

# test_protocol: chemical genetic growth profiling, strain panel (AID 1159580);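 also: tested at 20 µM; growth read once vehicle control cultures reached saturation at 30 °C; 1 = growth at the plate median or of vehicle wells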
# condition: S. cerevisiae deletion strains, growth OD, locus YBR009C, strain hhf1, stronger effect = lower value
Among all 5,500 compounds or so, about 2,000 (36%) were called active. About 18% were inconclusive and are not listed. The list shows a part of the results.
reported_property: normalized growth
Number, no unit, nothing else.

Entry C=CC[C@]1(O)CCC2C3CCC4=CC(=O)CCC4=C3C=C[C@@]21C (some centres not stated) has what normalized growth?
0.988

Look at this molecule and give its reported normalized growth. `COc1ccc(CN(CCN(C)C)c2ccccn2)cc1`
0.986

For `COc1ccc(-c2coc3cc(O)ccc3c2=O)cc1` , what is its reported normalized growth?
0.953

Look up normalized growth for this molecule: `COc1ccc(-c2coc3cc(O)ccc3c2=O)c(O)c1O`
0.955

// returns reported normalized growth for input `O=c1c(-c2ccc(O)cc2)coc2cc(O)ccc12`
0.97

What value of normalized growth has been reported for the following molecule? `CC[C@@]1(O)C[C@H](O)c2c(cc3c(c2O)C(=O)c2c(O)ccc(O)c2C3=O)[C@H]1C(=O)OC`
0.805

Would you mind telling me what normalized growth value was observed for `N[C@@H](Cc1ccc(N(CCCl)CCCl)cc1)C(=O)O` ?
0.985

normalized growth lookup needed for `CN(C)CCN(Cc1cccs1)c1ccccn1` , thanks.
0.996

Endpoint output: normalized growth of COc1ccc2c(c1)OC1(O)COc3cc(OC)c(OC)cc3C1=C2 (configuration not stated) . Value?
1

Entry CC#CC1(O)CCC2C3CCC4=CC(=O)CCC4=C3C(c3ccc(N(C)C)cc3)CC21C (configuration not stated) has what normalized growth?
0.998

Can you share its normalized growth? I mean this molecule: `CN(C)CCN(Cc1ccccc1)c1ccccn1`
0.963

Look at this molecule and give its reported normalized growth. `COc1ccc(-c2coc3cc(O)ccc3c2=O)c(OC)c1O`
0.966
